# Experiment Notes: Acute toxicity (mice)
# Recorded Conditions: mouse, in vivo, po, read-out: Acute Toxicity (Mice) LD50 p.o.
Measured Quantity: LD50 (mg/kg)
Write it as a number; the unit mg/kg goes unstated.

Please fill in: LD50 reported for NCc1cc(=O)[nH]o1 = 22

====

As shown below, each of these compounds has a reported LD50 value.
# Experiment Notes: Acute toxicity (mice)
# Recorded Conditions: mouse, in vivo, iv, read-out: Acute Toxicity (Mice) LD50 i.v.
Report the value in mg/kg with no unit label.

>>> print(df.to_string())
      item_smiles  measurement_unit  result_number
0  Oc1noc2c1CCNC2             mg/kg             80

// next entry
LD50 reading for NCc1cc(=O)[nH]o1 : 7
